# Test system: PRC2-mediated histone H3 methylation
# experiment.description: Tri-Methyl Histone H3 (Lys 27) Sandwich ELISA in Pfeiffer cells: inhibition of PRC2-mediated histone H3 methylation
# Assay type: cell-based, human
# cond: Homo sapiens; Inhibition of EZH2-mediated histone H3 trimethylation; Pfeiffer cells (EZH2 A677G), 96 hours incubation
pIC50: −log10 of the molar value.
# key: entry, value: pIC50
result.type: pIC50

>  <line.notation>
CCOP(=O)(OCC)c1ccc(-c2cnc(NCc3c(F)ccc4c3CCO4)n3cc(C#N)nc23)cc1

>  <value>
≥ 7.00

$$$$
>  <line.notation>
[2H]C([2H])([2H])N(Cc1ccc(-c2cnc(NCc3c(F)ccc4c3CCO4)n3cc(C#N)nc23)c(C)c1)C([2H])([2H])[2H]

>  <value>
≥ 7.00

$$$$
>  <line.notation>
CN(C)CCOc1ccc(-c2cnc(NCc3c(F)ccc4c3CCO4)n3cc(C#N)nc23)cc1

>  <value>
6.30 to 7.00

$$$$
>  <line.notation>
N#Cc1cn2c(NCc3c(F)ccc4c3CCO4)ncc(-c3ccc(S(N)(=O)=O)cc3)c2n1

>  <value>
≥ 7.00

$$$$
>  <line.notation>
CN(C)CCc1cccc(-c2cnc(NCc3c(F)ccc4c3CCO4)n3cc(C#N)nc23)c1

>  <value>
6.30 to 7.00

$$$$
>  <line.notation>
Cc1cc(CN(C)C)ncc1-c1cnc(NCc2c(F)ccc3c2CCO3)n2cc(C#N)nc12

>  <value>
≥ 7.00

$$$$
>  <line.notation>
Cc1cc(-c2cnc(NCc3c(F)ccc4c3CCO4)n3cc(C(N)=O)nc23)n(C)n1

>  <value>
≥ 7.00

$$$$
>  <line.notation>
CN(C)c1ccc(-c2cnc(NCc3c(F)ccc4c3CCO4)n3cc(C#N)nc23)cn1

>  <value>
< 6.30

$$$$
